- TARGET OR TEST SYSTEM: Prostaglandin G/H synthase 1 (Ovis aries, UniProt P05979)
- Sequence (P05979 whole entry): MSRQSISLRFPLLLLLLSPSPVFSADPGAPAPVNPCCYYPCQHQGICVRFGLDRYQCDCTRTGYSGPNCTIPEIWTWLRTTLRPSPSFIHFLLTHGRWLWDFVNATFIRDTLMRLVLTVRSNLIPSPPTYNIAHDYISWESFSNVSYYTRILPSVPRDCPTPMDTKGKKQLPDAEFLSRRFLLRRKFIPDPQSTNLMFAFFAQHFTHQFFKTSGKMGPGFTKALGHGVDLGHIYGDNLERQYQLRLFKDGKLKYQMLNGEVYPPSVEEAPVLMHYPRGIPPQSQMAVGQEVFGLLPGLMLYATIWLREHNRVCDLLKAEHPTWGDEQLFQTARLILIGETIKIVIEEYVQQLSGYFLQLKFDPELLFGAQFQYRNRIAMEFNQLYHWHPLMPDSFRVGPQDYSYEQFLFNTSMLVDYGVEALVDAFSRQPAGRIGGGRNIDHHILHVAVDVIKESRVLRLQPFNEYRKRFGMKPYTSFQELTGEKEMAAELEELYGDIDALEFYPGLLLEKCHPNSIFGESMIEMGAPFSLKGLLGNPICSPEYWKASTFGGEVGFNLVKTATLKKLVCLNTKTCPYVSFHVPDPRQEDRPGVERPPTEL
pIC50: −log10 of the molar value.
// values below are reported pIC50

# MOLECULE, CMP, pIC50
records = [
    ("COc1ccc2c(c1)c(CC(=O)Nc1cc(C)c(C(=O)Nc3ccccc3)cc1OC)c(C)n2C(=O)c1ccc(Cl)cc1", "=", 4.77),
    ("COc1ccc2c(c1)c(CC(=O)OCCc1ccccc1)cn2C(=O)c1ccc(Cl)cc1", "<", 4.18),
    ("COc1ccc2c(c1)c(CC(=O)N1CCOCC1)c(C)n2C(=O)c1ccc(Cl)cc1 [INDOMETHACIN MORPHOLINYLAMIDE]", "<", 4.18),
    ("COc1ccc2c(c1)c(CC(=O)NOCc1ccc([N+](=O)[O-])cc1)c(C)n2C(=O)c1ccc(Cl)cc1", "=", 5.40),
    ("COc1ccc2c(c1)c(CC(=O)Nc1cncc(Cl)c1)c(C)n2C(=O)c1ccc(Cl)cc1", "<", 4.18),
    ("COc1ccc2c(c1)c(CC(=O)NCCOC(=O)/C=C/c1ccc(N(C)C)cc1)c(C)n2C(=O)c1ccc(Cl)cc1", "<", 4.18),
    ("COc1ccc2c(c1)c(CC(=O)NOCc1ccccc1)c(C)n2C(=O)c1ccc(Cl)cc1", "=", 7.22),
    ("COc1ccc2c(c1)c(CC(=O)Nc1cccnc1Cl)c(C)n2C(=O)c1ccc(Cl)cc1", "=", 4.35),
]

====

- TARGET OR TEST SYSTEM: Prostaglandin G/H synthase 2 (Homo sapiens, UniProt P35354)
- Sequence (P35354 whole entry): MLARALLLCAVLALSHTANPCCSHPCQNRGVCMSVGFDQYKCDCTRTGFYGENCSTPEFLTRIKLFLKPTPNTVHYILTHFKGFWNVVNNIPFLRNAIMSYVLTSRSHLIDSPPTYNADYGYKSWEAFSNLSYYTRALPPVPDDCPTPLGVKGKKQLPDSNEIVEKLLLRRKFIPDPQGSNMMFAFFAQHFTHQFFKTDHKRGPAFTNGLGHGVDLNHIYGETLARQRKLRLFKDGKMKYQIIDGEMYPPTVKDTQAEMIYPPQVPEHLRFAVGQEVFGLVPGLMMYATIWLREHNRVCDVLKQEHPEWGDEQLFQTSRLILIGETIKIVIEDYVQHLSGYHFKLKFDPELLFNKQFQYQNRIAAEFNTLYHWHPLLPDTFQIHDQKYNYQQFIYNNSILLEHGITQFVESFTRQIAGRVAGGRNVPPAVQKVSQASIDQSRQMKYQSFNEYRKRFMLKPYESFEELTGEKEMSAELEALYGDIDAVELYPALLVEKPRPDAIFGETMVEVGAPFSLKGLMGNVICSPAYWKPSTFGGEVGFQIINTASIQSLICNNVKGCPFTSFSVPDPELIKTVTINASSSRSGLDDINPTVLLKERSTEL
Sorting guide: entries reporting IC50 beneath 50 nM go in the yes pile, the rest go in the no pile.

# MOLECULE, ASSIGNED LABEL
measured = [
    ("COc1ccc2c(c1)c(CC(=O)Nc1ccc(C(N)=O)cc1)c(C)n2C(=O)c1ccc(Cl)cc1", "no"),
    ("COc1ccc2c(c1)c(CC(=O)N1CCOCC1)c(C)n2C(=O)c1ccc(Cl)cc1 [INDOMETHACIN MORPHOLINYLAMIDE]", "no"),
    ("COc1ccc2c(c1)c(CC(=O)Nc1cncc(Cl)c1)c(C)n2C(=O)c1ccc(Cl)cc1", "yes"),
    ("COc1ccc2c(c1)c(CC(=O)OCCc1ccccc1)cn2C(=O)c1ccc(Cl)cc1", "no"),
    ("COc1ccc2c(c1)c(CC(=O)Nc1cc(C)c(C(=O)Nc3ccccc3)cc1OC)c(C)n2C(=O)c1ccc(Cl)cc1", "no"),
    ("COc1ccc2c(c1)c(CC(=O)Nc1cc(OC)c(OC)c(OC)c1)c(C)n2C(=O)c1ccc(Cl)cc1", "no"),
    ("COc1ccc2c(c1)c(CC(=O)NOCc1ccc([N+](=O)[O-])cc1)c(C)n2C(=O)c1ccc(Cl)cc1", "no"),
    ("COc1ccc2c(c1)c(CC(=O)NCCc1ccccc1)cn2C(=O)c1ccc(Cl)cc1", "no"),
    ("COc1ccc2c(c1)c(CC(=O)NNCc1ccccc1)c(C)n2C(=O)c1ccc(Cl)cc1", "no"),
    ("COc1ccc2c(c1)c(CC(=O)OCCNC(=O)OC(C)(C)C)c(C)n2C(=O)c1ccc(Cl)cc1", "yes"),
]

These measurements were taken from ChEMBL document CHEMBL1133457.
